Tested on: MCF7 breast
Assay: NCI-60 one-dose screen, 48 h
Conditions: 10 µM
Compounds without any hit were thinned out: in the full panel of roughly 83,000, 20% have a hit. Activity calls are given as the source filed them. The calls were made as follows: active = growth percent below 10; inactive = the rest.
Respond only with the outcome that fits, drawn from y = active, n = inactive

Cc1ccc(C)c(S(=O)(=O)NC2c3ccccc3Oc3ccccc32)c1    n
Cc1ccc2oc(=O)cc(/C(=C3/C=CC=N3)c3ccc[nH]3)c2c1    y
COc1cc2ccnc(C=O)c2cc1OC    n

Consider now this further molecule.
Query: What was the test verdict on COc1ccc(NC(=O)c2sc3nc4c(cc3c2N)C(O)CCC4)cc1 (centres undefined) ?
Result: n

Origin of the recorded values: PubChem BioAssay (NCI)
